Target: OsWRKY34 (Oryza sativa, UniProt Q0JBA9 1-250)
Sequence (Q0JBA9 entry or part of it): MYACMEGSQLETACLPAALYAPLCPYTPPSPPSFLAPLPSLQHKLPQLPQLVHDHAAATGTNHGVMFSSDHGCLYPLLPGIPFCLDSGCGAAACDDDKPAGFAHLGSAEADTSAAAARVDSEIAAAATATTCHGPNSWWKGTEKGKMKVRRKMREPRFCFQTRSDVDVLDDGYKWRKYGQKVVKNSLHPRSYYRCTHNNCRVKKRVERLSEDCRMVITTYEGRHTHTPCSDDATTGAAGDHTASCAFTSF
Assay: protein-binding microarray (RPBM); PBS, 2% BSA, 51.3 ng/ul salmon testes DNA, 50 uM zinc acetate, 200 nM TF, 25 C, 1 h; high values mean tight binding
Settings: protein: recombinant; tags: N-terminal polyhistidine and DsRed monomer fusion (pET32a); label: CyDye5-dUTP incorporated in the synthesized complementary strand; 3' TTTTT single-stranded linker to array surface; dsDNA, one strand shown
In all, about 68,000 sequences were measured (“fluorescence intensity (a.u.)”: median about 9,100, highest 2% from about 16,000 on). The sample holds the highest values, similar sequences and a random draw of the others, so the mix is not that of the screen.
Measured binding signal values are reported for all entries that follow.

- sequence entry: "GCCTCTGCCAGCCGACGGCCGTTCGGCCCTCCGCGCACGCCGGAGTCACCTAGTGCAG"
  binding signal: "8320 fluorescence intensity (a.u.)"
- sequence entry: "GAGGTGGCTGGAGTGGGGTTTAGTGTTGGTTGTTAGGGATCGGAGTCACCTAGTGCAG"
  binding signal: "13500 fluorescence intensity (a.u.)"
- sequence entry: "TTCAAAATGTTTGACACCGTTGACTTTTTAACACATGATCCGGAGTCACCTAGTGCAG"
  binding signal: "32400 fluorescence intensity (a.u.)"
- sequence entry: "ATGTTTGACGCCGTTGATATTTTAGCACATGTTTGACTGTCGGAGTCACCTAGTGCAG"
  binding signal: "11400 fluorescence intensity (a.u.)"
- sequence entry: "ATCTGGTAACTCAAGTGCTCTCTTCCTGACTGCTGCAGCACGGAGTCACCTAGTGCAG"
  binding signal: "9470 fluorescence intensity (a.u.)"
- sequence entry: "CTTTTTTTCCAACGTTTGACCATTTGTCTTATTCAAAAAACGGAGTCACCTAGTGCAG"
  binding signal: "8560 fluorescence intensity (a.u.)"
- sequence entry: "GTTGTCGGTGTGTGGGTGGTGATATATTTTTTTAACTGGTCGGAGTCACCTAGTGCAG"
  binding signal: "9020 fluorescence intensity (a.u.)"
- sequence entry: "GGTGCTTGTTTAATCAAAGCTTGCTATTTGGTACTTTTTTCGGAGTCACCTAGTGCAG"
  binding signal: "8940 fluorescence intensity (a.u.)"
- sequence entry: "AACTCATCTGACAGTGATCCATCGTCCTTTTTCTTTGACTCGGAGTCACCTAGTGCAG"
  binding signal: "10100 fluorescence intensity (a.u.)"
- sequence entry: "GTAGCATGCTTCTATCCTGTCCCGGTGTTTGTCGTACATTCGGAGTCACCTAGTGCAG"
  binding signal: "10200 fluorescence intensity (a.u.)"
- sequence entry: "CGTCTCCGCCGCTGCTTGAATCTGCCGCCACCATCACCGCCGGAGTCACCTAGTGCAG"
  binding signal: "8910 fluorescence intensity (a.u.)"
- sequence entry: "CTCTCTCTGCTCGAGCCCGAGTAGCCCTCGTCGTCATTCTCGGAGTCACCTAGTGCAG"
  binding signal: "8950 fluorescence intensity (a.u.)"
- sequence entry: "AAAGCCTGTGGCCACATCTTATCTTTTCCATCCTTTGCATCGGAGTCACCTAGTGCAG"
  binding signal: "8040 fluorescence intensity (a.u.)"
- sequence entry: "ATATTTTAATGAATGACACTGTTGACTTTTTGACAAACGTCGGAGTCACCTAGTGCAG"
  binding signal: "13300 fluorescence intensity (a.u.)"
- sequence entry: "TCCCGACACCGGCTGTCCACTTCGCTCTGCTCCACGCCGCCGGAGTCACCTAGTGCAG"
  binding signal: "8660 fluorescence intensity (a.u.)"
- sequence entry: "CCTCTCGGGCGCCTCTCCTCTCCATCATTCCTCCCACTGCCGGAGTCACCTAGTGCAG"
  binding signal: "9880 fluorescence intensity (a.u.)"
- sequence entry: "CTTCCCATGGCTTTTACTCTCCACTCGAAATCTCGTAACACGGAGTCACCTAGTGCAG"
  binding signal: "11100 fluorescence intensity (a.u.)"
- sequence entry: "CCACGCCGCACCCACCCACTGCCCGTTCCGTTCCGGCGACCGGAGTCACCTAGTGCAG"
  binding signal: "10900 fluorescence intensity (a.u.)"
- sequence entry: "CTTTTGACTGCCACAGTGTGTTAGGTATATGTTTGTTTCACGGAGTCACCTAGTGCAG"
  binding signal: "11700 fluorescence intensity (a.u.)"
- sequence entry: "CCTTCCGTTTGACACTGTTGACTTTTTTAAATATGTTTGACGGAGTCACCTAGTGCAG"
  binding signal: "16100 fluorescence intensity (a.u.)"
- sequence entry: "TTTTCCAAACTTCCAACTTTCTATCACATCAAACCTTTCACGGAGTCACCTAGTGCAG"
  binding signal: "8100 fluorescence intensity (a.u.)"
- sequence entry: "CCATTGACTTTTTGTCCAACGTTTGACCATTCGTCTTATTCGGAGTCACCTAGTGCAG"
  binding signal: "17000 fluorescence intensity (a.u.)"
- sequence entry: "AATTTGGTGGGGTCGGGGTGGGTGCTTTAACTGGGGAGATCGGAGTCACCTAGTGCAG"
  binding signal: "24500 fluorescence intensity (a.u.)"
- sequence entry: "CGTGGGGTGGGATCGGAAGCAGTGGAGTTGTTTTTATTATCGGAGTCACCTAGTGCAG"
  binding signal: "16500 fluorescence intensity (a.u.)"
